- System: Plasmodium falciparum parasite
- experiment.notes: Whole cell assay: whole cell activity against the parasite
- Assay type: cell-based
- experimental.conditions: Plasmodium falciparum
pIC50: −log10 of the molar value. Structures can show the parent of a compound that is named as a salt.
measured.parameter: pIC50

Here are 3 compounds together with their reported answers.
# compound, pIC50
data = [
    ("CN1CCC(CN2CCN(Cc3ccc(C(=O)NN(c4nc(C#N)ncc4Br)C4CCOCC4)cc3)CC2)CC1", "6.82 to 7.82"),
    ("CN(Cc1ccc(C(=O)NN(c2nc(C#N)ncc2Cl)C2CCCC2)cc1)C1CCC2(CC1)OCC(C)(C)CO2 [Example 65, trifluoroacetate]", "6.82 to 7.82"),
    ("CN1CCC(CN2CCN(Cc3ccc(C(=O)NN(c4nc(C#N)ncc4Cl)C4CCOCC4)cc3)CC2)CC1", "6.82 to 7.82"),
]

// next entry
State, in one line, measured pIC50 of CN1CCN(C2CCN(Cc3ccc(C(=O)NN(c4nc(C#N)ncc4Br)C4CCOCC4)cc3)CC2)CC1 [Example 29, trifluoroacetate] 6.82 to 7.82
